These entries and their values trace back to ChEMBL document CHEMBL1153195.

Assay: Cmax in rat at 1 mg/kg, po
Type: ADME, organism-based
Set-up: dose 1 mg/kg, route oral
Conditions: in vivo
REPORTED_ENDPOINT: Cmax (ng/mL)

COMPOUND | Cmax [ng/mL]
Cc1cc(F)ccc1[C@H]1CNCCN1C(=O)N(C)C1(c2cc(C(F)(F)F)cc(C(F)(F)F)c2)CC1 | 29
Cc1cc(F)ccc1[C@H]1CNCCN1C(=O)N1CCNCC1c1cc(C(F)(F)F)cc(C(F)(F)F)c1 (stereo in doubt; 5b) | 32

----------
What follows is a collection of pKi values obtained with Substance-P receptor (Homo sapiens).
Sequence (P25103 whole entry): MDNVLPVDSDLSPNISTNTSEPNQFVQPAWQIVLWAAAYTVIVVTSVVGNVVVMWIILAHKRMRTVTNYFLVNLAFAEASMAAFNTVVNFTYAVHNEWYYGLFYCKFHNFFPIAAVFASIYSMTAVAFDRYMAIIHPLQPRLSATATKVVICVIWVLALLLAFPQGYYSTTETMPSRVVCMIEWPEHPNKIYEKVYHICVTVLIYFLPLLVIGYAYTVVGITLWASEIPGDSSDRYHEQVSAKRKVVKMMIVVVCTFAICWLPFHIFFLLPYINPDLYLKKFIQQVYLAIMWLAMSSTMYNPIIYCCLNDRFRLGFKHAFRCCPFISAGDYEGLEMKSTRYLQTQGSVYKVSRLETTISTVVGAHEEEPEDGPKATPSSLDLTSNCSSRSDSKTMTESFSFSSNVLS
pKi: −log10 of the molar value.
REPORTED_ENDPOINT: pKi

Example entries begin here.
COMPOUND | REPORTED_RESULT
Cc1cc(F)ccc1[C@H]1CNCCN1C(=O)N1CCCC1c1cc(C(F)(F)F)cc(C(F)(F)F)c1 (stereo in doubt; 2a) | 7.20
Cc1cc(F)ccc1[C@H]1CNCCN1C(=O)N1CCCCC1c1cc(C(F)(F)F)cc(C(F)(F)F)c1 (stereo in doubt; 4b) | 8.90
Cc1cc(F)ccc1[C@H]1CNCCN1C(=O)N(C)C1(c2cc(C(F)(F)F)cc(C(F)(F)F)c2)CC1 | 9.30

P: Cc1cc(F)ccc1[C@H]1CNCCN1C(=O)N1CCCCC1c1cc(C(F)(F)F)cc(C(F)(F)F)c1 (stereo in doubt; 4a)
Q: Cc1cc(F)ccc1[C@H]1CNCCN1C(=O)N1CCC=CC1c1cc(C(F)(F)F)cc(C(F)(F)F)c1 (stereo in doubt; 3b)
R: Cc1cc(F)ccc1[C@H]1CNCCN1C(=O)N1CCNCC1c1cc(C(F)(F)F)cc(C(F)(F)F)c1 (stereo in doubt; 5a)
S: Cc1cc(F)ccc1C1CNCC2CN(Cc3cc(C(F)(F)F)cc(C(F)(F)F)c3)C(=O)N21 (stereo not drawn)
T: Cc1cc(F)ccc1[C@H]1CNCCN1C(=O)N1CCCC1c1cc(C(F)(F)F)cc(C(F)(F)F)c1 (stereo in doubt; 2b)
### Prompt In this exercise, place the 5 compounds in ascending sequence of their recorded pKi. Please write the labels in the order that was asked for.
### Response R, S, P, T, Q
